meta.source: patent US20220177604A1

tested target: T1, recombinant Motavizumab human IgE (rMota-hIgE) (human, UniProt P01854 1-428)
T1 construct: also called Recombinant IgE (argenx)
T1 sequence (P01854 other isoform, or with tags, fused parts or gaps limits assumed, form in doubt): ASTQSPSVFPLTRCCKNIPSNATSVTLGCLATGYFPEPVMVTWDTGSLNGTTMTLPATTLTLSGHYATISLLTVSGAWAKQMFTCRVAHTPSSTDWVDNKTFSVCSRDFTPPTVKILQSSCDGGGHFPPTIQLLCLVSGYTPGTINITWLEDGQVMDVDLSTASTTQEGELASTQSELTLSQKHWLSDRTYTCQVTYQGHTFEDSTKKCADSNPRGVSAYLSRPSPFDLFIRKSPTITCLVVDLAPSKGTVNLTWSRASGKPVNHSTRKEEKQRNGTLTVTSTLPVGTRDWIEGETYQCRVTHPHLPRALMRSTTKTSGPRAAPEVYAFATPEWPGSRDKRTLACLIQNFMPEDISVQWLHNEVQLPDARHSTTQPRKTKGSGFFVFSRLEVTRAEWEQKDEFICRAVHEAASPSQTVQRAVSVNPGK
test description: hIgE binding ELISA
In this section we review reported Ratio EC50 pH 5.5/7.4 values for a set of binders.
The reply should be a number, written without any unit.

Here are 2 binders together with their reported answers.
{"binder": "OMA VH15 - VL3 (antibody, V domains shown) VH: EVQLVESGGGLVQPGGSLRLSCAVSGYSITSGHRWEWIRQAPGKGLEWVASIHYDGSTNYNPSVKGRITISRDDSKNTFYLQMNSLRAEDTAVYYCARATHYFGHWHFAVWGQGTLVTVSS VL: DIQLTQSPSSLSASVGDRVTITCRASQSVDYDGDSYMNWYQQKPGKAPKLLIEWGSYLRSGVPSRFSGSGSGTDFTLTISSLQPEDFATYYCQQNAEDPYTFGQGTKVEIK", "Ratio EC50 pH 5.5/7.4": 1.1}
{"binder": "OmaVH15G55HW100b - VL3D28H (antibody, V domains shown, also called OmaVH15G55HW100b VL3D25H) VH: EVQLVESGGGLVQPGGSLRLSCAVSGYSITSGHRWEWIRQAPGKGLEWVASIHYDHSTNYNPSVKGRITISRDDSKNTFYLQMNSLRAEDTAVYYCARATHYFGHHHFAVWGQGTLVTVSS VL: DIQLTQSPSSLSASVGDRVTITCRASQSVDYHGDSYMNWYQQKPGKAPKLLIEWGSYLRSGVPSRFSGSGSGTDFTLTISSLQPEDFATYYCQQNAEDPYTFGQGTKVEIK", "Ratio EC50 pH 5.5/7.4": 9.6}

Now turn to the next binder.
Query string: Requested field: Ratio EC50 pH 5.5/7.4. Item: OmaVH15G55H - VL3D28H (antibody, V domains shown, also called OmaVH15G55H VL3D25H) VH: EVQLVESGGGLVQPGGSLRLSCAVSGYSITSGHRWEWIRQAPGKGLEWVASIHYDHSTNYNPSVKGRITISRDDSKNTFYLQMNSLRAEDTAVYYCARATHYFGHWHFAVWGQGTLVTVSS VL: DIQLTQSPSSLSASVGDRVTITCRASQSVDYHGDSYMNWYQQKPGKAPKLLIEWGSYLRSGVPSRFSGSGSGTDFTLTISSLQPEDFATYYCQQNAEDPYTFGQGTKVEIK
Result string: 0.9
